- assay_remarks: Pharmacokinetic test in mice
- Type: in vivo, C57 mice
- details: male, C57, mouse, iv, plasma, i.v. 2.5 mg/kg
- Method: 1.1 Experimental animals: Male C57 mice, 20-25 g, 6 mice/compound. Purchased from Chengdu Ddossy Experimental Animals Co., Ltd. 1.2 Experimental design: On the day of the experiment, 24 C57 mice were randomly grouped according to their body weight. The animals were fasted with water available for 12 to 14 h one day before the administration and were fed 4 h after the administration. […]
attribute_measured: AUC(0-t) (ng·h/mL)

Cc1nc(N2CCC(C3CN(C4CC(C)(C(=O)O)C4)CCO3)CC2)nc(NC(C)c2ccc(Cl)cc2Cl)c1Cl (single isomer, unassigned) [Compound 73 isomer 3]; 7400

1. Cc1nc(N2CC(F)(C3CN(C4CC(C)(C(=O)O)C4)CCO3)C2)nc(N[C@H](C)c2ccc(Cl)cc2Cl)c1Cl (single isomer, unassigned) [Compound 64 isomer 3]
2. C[C@@H](Nc1cc(N2CC(C3CN(C4CC(C)(C(=O)O)C4)CCO3)C2)ccc1Cl)c1ccc(Cl)cc1Cl (single isomer, unassigned) [Compound 83 isomer 1]
3. Cc1nc(N2CCC(C3CN(CCC(=O)O)CCO3)CC2)nc(NC(C)c2ccc(Cl)cc2Cl)c1Cl (single isomer, unassigned) [Compound 76 isomer 2]
Request: Write the entries in order, lowest recorded AUC(0-t) first. Submit the labels in the order that the ranking request calls for.
Response: 3, 1, 2
(3: 1790 ng·h/mL, 1: 4490 ng·h/mL, 2: 7250 ng·h/mL)
